Origin of the recorded values: ChEMBL document CHEMBL1125567

Examples of compounds with documented inhibition follow.
- System: Phosphodiesterase 3 (Canis lupus familiaris)
- assay-info: Inhibition of cAMP Phosphodiesterase 3 at 10 uM

| structure-string | assayed-system | inhibition [%] |
| --- | --- | --- |
| Oc1ccc2c(Br)nccc2n1 | Phosphodiesterase 3 (Canis lupus familiaris) | 70 |
| Oc1ccc2c(-n3cncn3)nccc2n1 | Phosphodiesterase 3 (Canis lupus familiaris) | 50 |
| Cc1nccc2nc(Cl)ccc12 | Phosphodiesterase 3 (Canis lupus familiaris) | 18 |
| Oc1ccc2c(C(Cl)Cl)nccc2n1 | Phosphodiesterase 3 (Canis lupus familiaris) | 83 |

###

- Tested on: Phosphodiesterase 3 (Canis lupus familiaris)
- assay-info: In vitro inhibition of cAMP Phosphodiesterase 3 at a concentration of 10 uM
Below is a list of entries, each paired with its recorded inhibition value.

| structure-string | inhibition |
| --- | --- |
| Cn1c(=O)ccc2c(-c3ccccc3)nccc21 | 36% |
| Oc1ccc2c(-n3cnc(C(F)(F)F)c3)nccc2n1 | 13% |
| OCc1cn(-c2nccc3nc(O)ccc23)cn1 | 58% |
| Oc1ccc(-c2nccc3nc(O)ccc23)cc1 | 81% |
| Cc1nccc2nc(O)c(C#N)cc12 | 52% |
| Cc1cc2nc(O)ccc2cn1 | 53% |
